From: patent EP4458977A1

Assay: ATR-FT-IR determination of β-sheet content
Type: physicochemical
Settings: 1 mg/mL in PBS lyophilized; integral at 1630 cm^-1 relative to 1650-1700 cm^-1
Description: ATR-FT-IR: ATR-IR spectra acquisition and the calculation of β-sheet content were conducted according prior art procedures. Briefly, FT-IR spectra of solid samples were recorded after lyophilization of fibril solutions using a Bruker Tensor II spectrometer equipped with a diamond crystal as ATR element with a spectral resolution of 2 cm^-1, each spectrum was an average of 64 scans. […]
Where a SMILES comes first, the peptide text is derived from it. [ ]: non-standard residue; d: D form. The star is where a group is joined. Palmitoyl = CCCCCCCCCCCCCCCC(=O)*
Label condition met when β-sheet amount is strictly below 50%; at or above that, label condition not met.

compound | class-assignment
CCCCCCCCCCCCCCCC(=O)N[C@H](C(=O)N[C@H](C(=O)N[C@@H](CCC(N)=O)C(=O)N[C@@H](CCCCN)C(=O)N[C@H](C(=O)N[C@@H](CCCCN)C(N)=O)[C@@H](C)CC)[C@@H](C)CC)[C@@H](C)CC [Pat15, C16-IIQKIK-NH2] (Palmitoyl-IIQKIK-NH2) | condition met
CC(C)[C@@H](N)C(=O)N[C@@H](C(=O)N[C@@H](C(=O)N[C@H](C)C(=O)N[C@H](C)C(=O)N[C@H](C)C(=O)N[C@H](CCCCN)C(=O)N[C@H](CCCCN)C(=O)N[C@H](CCCCN)C(N)=O)C(C)C)C(C)C [Pat33, vvvaaakkk-NH2] (H-[dV][dV][dV][dA][dA][dA][dK][dK][dK]-NH2) | condition met
CCCCCCCCCCCCCCCC(=O)N[C@@H](Cc1c[nH]c2ccccc12)C(=O)N[C@@H](CCC(=O)O)C(=O)N[C@@H](C)C(=O)N[C@@H](CC(C)C)C(=O)N[C@@H](CCCCN)C(=O)N[C@@H](CCCCN)C(N)=O [Pat17, C16-WEALKK-NH2] (Palmitoyl-WEALKK-NH2) | condition met
CCCCCCCCCCCCCCCC(=O)NCC(=O)NCC(=O)NCC(=O)N[C@@H](CO)C(=O)N[C@@H](CO)C(=O)N[C@@H](CCCCN)C(=O)N[C@@H](CCCCN)C(=O)N[C@@H](CCCCN)C(N)=O [Pat28] (Palmitoyl-GGGSSKKK-NH2) | condition met
CCCCCCCCCCCCCCCC(=O)N[C@@H](CC(N)=O)C(=O)N[C@@H](Cc1ccccc1)C(=O)N[C@@H](Cc1ccc(O)cc1)C(=O)N[C@@H](CC(C)C)C(=O)N[C@@H](CCC(N)=O)C(=O)N[C@H](C(=O)N[C@@H](CC(N)=O)C(=O)N[C@@H](CCCCN)C(=O)N[C@H](C(=O)N[C@@H](CC(N)=O)C(=O)N[C@@H](CCCCN)C(N)=O)[C@@H](C)CC)C(C)C [Pat27] (Palmitoyl-NFYLQVNKINK-NH2) | condition not met
CCCCCCCCCCCCCCCC(=O)N[C@@H](CC(C)C)C(=O)N[C@@H](CC(C)C)C(=O)N[C@@H](CC(C)C)C(=O)N[C@@H](CCCCN)C(=O)N[C@@H](CCCCN)C(N)=O [Pat23, C16-LLLKK-NH2] (Palmitoyl-LLLKK-NH2) | condition met
CCCCCCCCCCCCCCCC(=O)N[C@@H](C)C(=O)N[C@@H](CCCCN)C(=O)N[C@@H](C)C(=O)N[C@H](C(=O)NCC(=O)N[C@@H](CCCCN)C(N)=O)C(C)C [Pat31, C16-AKAVGK-NH2] (Palmitoyl-AKAVGK-NH2) | condition met
CCCCCCCCCCCCCCCC(=O)N[C@@H](CCCCN)C(=O)NCC(=O)N[C@H](C(=O)N1CCC[C@H]1C(=O)NCC(=O)N[C@H](C(=O)NCC(=O)N[C@@H](CCCCN)C(N)=O)C(C)C)C(C)C [Pat25] (Palmitoyl-KGVPGVGK-NH2) | condition met
CCCCCCCCCCCCCCCC(=O)N[C@@H](C)C(=O)NCC(=O)NCC(=O)N[C@@H](CCCNC(=N)N)C(=O)N[C@H](C(=O)N[C@@H](CCCCN)C(N)=O)C(C)C [Pat18, C16-AGGRVK-NH2] (Palmitoyl-AGGRVK-NH2) | condition not met
CCCCCCCCCCCCCCCC(=O)N[C@@H](CC(C)C)C(=O)N[C@@H](CC(N)=O)C(=O)NCC(=O)NCC(=O)N[C@H](C(=O)N[C@@H](CCCCN)C(=O)N[C@@H](CCCCN)C(N)=O)C(C)C [Pat19, C16-LNGGVKK-NH2] (Palmitoyl-LNGGVKK-NH2) | condition met
CCCCCCCCCCCCCCCC(=O)N[C@H](C(=O)N[C@H](C(=O)N[C@@H](C)C(=O)N[C@@H](C)C(=O)N[C@@H](Cc1c[nH]cn1)C(=O)N[C@@H](Cc1c[nH]cn1)C(=O)N[C@@H](Cc1c[nH]cn1)C(N)=O)C(C)C)C(C)C [Pat24, C16-VVAAHHH-NH2] (Palmitoyl-VVAAHHH-NH2) | condition not met
CCCCCCCCCCCCCCCC(=O)N[C@@H](C)C(=O)N[C@@H](CC(C)C)C(=O)N[C@@H](C)C(=O)N[C@@H](C)C(=O)NCC(=O)N[C@@H](CCCCN)C(=O)N[C@@H](CCCCN)C(N)=O [Pat20, C16-ALAAGKK-NH2] (Palmitoyl-ALAAGKK-NH2) | condition met
CCCCCCCCCCCCCCCC(=O)N[C@@H](C)C(=O)N[C@H](C(=O)N[C@@H](C)C(=O)N[C@@H](CCCCN)C(=O)N[C@@H](CCCCN)C(=O)N[C@@H](CCCCN)C(N)=O)C(C)C [Pat21, C16-AVAKKK-NH2] (Palmitoyl-AVAKKK-NH2) | condition met
